System: IL-2 stimulated pSTAT5 in Tall-1 T cells
Test: Cellular JAK3 potency assay: inhibition of IL-2 stimulated pSTAT5 in Tall-1 T cells
Type: cell-based, human
Details: Homo sapiens, TALL-1, IL-2 stimulated pSTAT5 in Tall-1 T cells; read-out: Tall-1 (pIC50) (converted)
readout_type: IC50

>  <compound>
C=CC(=O)N1CC[C@H](Oc2cc(-c3ccc(O)c(F)c3)cc3[nH]nc(SC)c23)C1

>  <measurement_target>
IL-2 stimulated pSTAT5 in Tall-1 T cells

>  <readout_type>
IC50

>  <assay_value>
31.6 to 200 nM

$$$$
>  <compound>
C=CC(=O)N1CC(F)(COc2nc(-c3ccc(O)c(F)c3)nc3[nH]ncc23)C1

>  <measurement_target>
IL-2 stimulated pSTAT5 in Tall-1 T cells

>  <readout_type>
IC50

>  <assay_value>
< 31.6 nM

$$$$
>  <compound>
C=CC(=O)N1CC(C)(COc2cc(-c3ccc(O)c(F)c3)nc3[nH]ncc23)C1

>  <measurement_target>
IL-2 stimulated pSTAT5 in Tall-1 T cells

>  <readout_type>
IC50

>  <assay_value>
31.6 to 200 nM

$$$$
>  <compound>
CN(C)C/C=C/C(=O)N1CC(F)(COc2nc(-c3ccc(O)c(Cl)c3)cc3[nH]ncc23)C1

>  <measurement_target>
IL-2 stimulated pSTAT5 in Tall-1 T cells

>  <readout_type>
IC50

>  <assay_value>
< 31.6 nM

$$$$
>  <compound>
C=CC(=O)N1CC[C@H](Oc2nc(-c3ccc(O)c(Cl)c3)cc3[nH]nc(C)c23)C1

>  <measurement_target>
IL-2 stimulated pSTAT5 in Tall-1 T cells

>  <readout_type>
IC50

>  <assay_value>
< 31.6 nM

$$$$
>  <compound>
C=CC(=O)N1CC(CC)(COc2cc(-c3ccc(O)cc3)nc3[nH]ncc23)C1

>  <measurement_target>
IL-2 stimulated pSTAT5 in Tall-1 T cells

>  <readout_type>
IC50

>  <assay_value>
31.6 to 200 nM

$$$$
>  <compound>
CSC1CCN(C/C=C/C(=O)N2CC(COc3cc(-c4ccc(O)cc4)cc4[nH]ncc34)C2)C1 (stereo not shown)

>  <measurement_target>
IL-2 stimulated pSTAT5 in Tall-1 T cells

>  <readout_type>
IC50

>  <assay_value>
31.6 to 200 nM

$$$$
>  <compound>
C=CC(=O)N1CCO[C@@H](C(=O)Nc2cc(-c3ccc(O)cc3)cc3[nH]ncc23)C1

>  <measurement_target>
IL-2 stimulated pSTAT5 in Tall-1 T cells

>  <readout_type>
IC50

>  <assay_value>
< 31.6 nM

$$$$
>  <compound>
O=C(/C=C/CN1CCOCC1)N1CC(COc2cc(-c3ccc(O)cc3)cc3[nH]ncc23)C1

>  <measurement_target>
IL-2 stimulated pSTAT5 in Tall-1 T cells

>  <readout_type>
IC50

>  <assay_value>
200 to 1000 nM

$$$$
>  <compound>
C#CC(=O)N1CC(COc2cc(-c3ccc(O)cc3)cc3[nH]ncc23)C1

>  <measurement_target>
IL-2 stimulated pSTAT5 in Tall-1 T cells

>  <readout_type>
IC50

>  <assay_value>
31.6 to 200 nM

$$$$
>  <compound>
C=CC(=O)N1CC[C@H](Oc2nc(-c3ccc(O)cc3)nc3[nH]nc(C(F)F)c23)C1

>  <measurement_target>
IL-2 stimulated pSTAT5 in Tall-1 T cells

>  <readout_type>
IC50

>  <assay_value>
31.6 to 200 nM

$$$$
>  <compound>
COC1(C)CN(C/C=C/C(=O)N2CC(COc3cc(-c4ccc(O)cc4)cc4[nH]ncc34)C2)C1

>  <measurement_target>
IL-2 stimulated pSTAT5 in Tall-1 T cells

>  <readout_type>
IC50

>  <assay_value>
200 to 1000 nM

$$$$
>  <compound>
C=CC(=O)N1CC[C@H](Oc2nc(-c3ccc(O)cc3)cc3[nH]nc(C)c23)C1

>  <measurement_target>
IL-2 stimulated pSTAT5 in Tall-1 T cells

>  <readout_type>
IC50

>  <assay_value>
< 31.6 nM

$$$$
>  <compound>
COC(CN(C)C/C=C/C(=O)N1CC(COc2cc(-c3ccc(O)cc3)cc3[nH]ncc23)C1)OC

>  <measurement_target>
IL-2 stimulated pSTAT5 in Tall-1 T cells

>  <readout_type>
IC50

>  <assay_value>
31.6 to 200 nM

$$$$
>  <compound>
C=C(CN(C)C)C(=O)N1CC(COc2nc(-c3ccc(O)cc3)nc3[nH]ncc23)C1

>  <measurement_target>
IL-2 stimulated pSTAT5 in Tall-1 T cells

>  <readout_type>
IC50

>  <assay_value>
31.6 to 200 nM

$$$$
>  <compound>
C=CC(=O)N1CC(F)(COc2nc(-c3ccc(O)c(Cl)c3)cc3[nH]ncc23)C1

>  <measurement_target>
IL-2 stimulated pSTAT5 in Tall-1 T cells

>  <readout_type>
IC50

>  <assay_value>
< 31.6 nM

$$$$

====

Test system: IL-2 stimulated pSTAT5 in Tall-1 T cells
Experiment: Cellular JAK3 potency assay: inhibition of IL-2 stimulated pSTAT5 in Tall-1 T cells
Type: cell-based, human
Settings: Homo sapiens, TALL-1, IL-2 stimulated pSTAT5 in Tall-1 T cells; read-out: Tall-1 (pIC50) (converted)

>  <compound>
C=CC(=O)N1CC[C@H](Oc2cc(-c3cc(F)c(O)cc3C)cc3[nH]ncc23)C1 [Compound 1-16]

>  <measurement_target>
IL-2 stimulated pSTAT5 in Tall-1 T cells

>  <IC50>
31.6 to 200 nM

$$$$
>  <compound>
Cc1cc(O)c(F)cc1-c1cc(O[C@H]2CCN(C(=O)/C=C/CN(C)C)C2)c2cn[nH]c2c1 [Compound 1-29]

>  <measurement_target>
IL-2 stimulated pSTAT5 in Tall-1 T cells

>  <IC50>
31.6 to 200 nM

$$$$
>  <compound>
C=CC(=O)N1CC(C)(COc2nc(-c3ccc(O)cc3)cc3[nH]ncc23)C1 [Compound 3-56]

>  <measurement_target>
IL-2 stimulated pSTAT5 in Tall-1 T cells

>  <IC50>
< 31.6 nM

$$$$
>  <compound>
C=CC(=O)N1CC(C)(COc2cc(-c3ccc(O)c(F)c3)cc3[nH]ncc23)C1 [Compound 3-12]

>  <measurement_target>
IL-2 stimulated pSTAT5 in Tall-1 T cells

>  <IC50>
31.6 to 200 nM

$$$$
>  <compound>
CN(C)C/C=C/C(=O)N1CC[C@H](Oc2nc(-c3ccc(O)c(F)c3)cc3[nH]ncc23)C1 [Compound 1-28]

>  <measurement_target>
IL-2 stimulated pSTAT5 in Tall-1 T cells

>  <IC50>
200 to 1000 nM

$$$$
>  <compound>
C=CC(=O)N1CC(COc2cc(-c3ccc(O)cc3)cc3[nH]ncc23)C1 [Compound 3-1]

>  <measurement_target>
IL-2 stimulated pSTAT5 in Tall-1 T cells

>  <IC50>
< 31.6 nM

$$$$
>  <compound>
CN(C)C/C=C/C(=O)N1CC(CN(C)c2cc(-c3ccc(O)cc3)cc3[nH]ncc23)C1 [Compound 11]

>  <measurement_target>
IL-2 stimulated pSTAT5 in Tall-1 T cells

>  <IC50>
31.6 to 200 nM

$$$$
>  <compound>
CN(C)C/C=C/C(=O)N1CC(COc2cc(-c3ccc(O)c(F)c3F)cc3[nH]ncc23)C1 [Compound 3-82]

>  <measurement_target>
IL-2 stimulated pSTAT5 in Tall-1 T cells

>  <IC50>
< 31.6 nM

$$$$
>  <compound>
C[C@@H]1C[C@H](Oc2cc(-c3ccc(O)cc3)cc3[nH]ncc23)CN1C(=O)/C=C/CN(C)C [Compound 1-10]

>  <measurement_target>
IL-2 stimulated pSTAT5 in Tall-1 T cells

>  <IC50>
200 to 1000 nM

$$$$
>  <compound>
C=CC(=O)N1CC(F)(COc2nc(-c3ccc(O)cc3)nc3[nH]ncc23)C1 [Compound 3-45]

>  <measurement_target>
IL-2 stimulated pSTAT5 in Tall-1 T cells

>  <IC50>
< 31.6 nM

$$$$
>  <compound>
COC1CN(C/C=C/C(=O)N2CC(COc3cc(-c4ccc(O)cc4)cc4[nH]ncc34)C2)C1 [Compound 3-132]

>  <measurement_target>
IL-2 stimulated pSTAT5 in Tall-1 T cells

>  <IC50>
200 to 1000 nM

$$$$
>  <compound>
C=CC(=O)N1CC[C@H](Oc2cc(-c3ccc(O)cc3)cc3[nH]nc(SC)c23)C1 [Compound 1-39]

>  <measurement_target>
IL-2 stimulated pSTAT5 in Tall-1 T cells

>  <IC50>
31.6 to 200 nM

$$$$
>  <compound>
C=CC(=O)N1CC[C@H](Oc2nc(-c3ccc(O)c(F)c3)cc3[nH]nc(C)c23)C1 [Compound 1-36]

>  <measurement_target>
IL-2 stimulated pSTAT5 in Tall-1 T cells

>  <IC50>
< 31.6 nM

$$$$
>  <compound>
C=CC(=O)N1CC[C@H](Oc2cc(-c3ccc(O)cc3)cc3[nH]nc(N(C)C)c23)C1 [Compound 1-42]

>  <measurement_target>
IL-2 stimulated pSTAT5 in Tall-1 T cells

>  <IC50>
200 to 1000 nM

$$$$
>  <compound>
C=CC(=O)N1CC(COc2cc(-c3ccc(O)c(Cl)c3)cc3[nH]ncc23)C1 [Compound 3-3]

>  <measurement_target>
IL-2 stimulated pSTAT5 in Tall-1 T cells

>  <IC50>
< 31.6 nM

$$$$
>  <compound>
C=CC(=O)N1CC[C@H](Oc2nc(-c3ccc(O)cc3)cc3[nH]ncc23)C1 [Compound 1-8]

>  <measurement_target>
IL-2 stimulated pSTAT5 in Tall-1 T cells

>  <IC50>
31.6 to 200 nM

$$$$
>  <compound>
C=CC(=O)N1CC(C)(COc2nc(-c3ccc(O)c(F)c3)nc3[nH]ncc23)C1 [Compound 21]

>  <measurement_target>
IL-2 stimulated pSTAT5 in Tall-1 T cells

>  <IC50>
31.6 to 200 nM

$$$$
>  <compound>
C=CC(=O)N1CC(F)(COc2nc(-c3ccc(O)c(Cl)c3)nc3[nH]ncc23)C1 [Compound 3-92]

>  <measurement_target>
IL-2 stimulated pSTAT5 in Tall-1 T cells

>  <IC50>
< 31.6 nM

$$$$
>  <compound>
C=CC(=O)N1CC(COc2nc(-c3ccc(O)c(Cl)c3)cc3[nH]ncc23)C1 [Compound 3-35]

>  <measurement_target>
IL-2 stimulated pSTAT5 in Tall-1 T cells

>  <IC50>
< 31.6 nM

$$$$
>  <compound>
C=CC(=O)N1CC[C@H](Oc2cc(-c3ccc(O)cc3)cc3[nH]nc(COC)c23)C1 [Compound 1-22]

>  <measurement_target>
IL-2 stimulated pSTAT5 in Tall-1 T cells

>  <IC50>
31.6 to 200 nM

$$$$
>  <compound>
CN(C)C/C=C/C(=O)N1CC[C@H](Oc2nc(-c3ccc(O)cc3)cc3[nH]ncc23)C1 [Compound 1-7]

>  <measurement_target>
IL-2 stimulated pSTAT5 in Tall-1 T cells

>  <IC50>
200 to 1000 nM

$$$$
